Source listed as PubChem BioAssay (NCI).

System: IGROV1 ovarian
Test description: NCI tumour cell line growth inhibition, 48 h
compounds and their reported TGI
Result type: TGI

>>> obs_value("Cc1cc(N(CCCl)CCCl)ccc1C=Nc1ccc2ccccc2c1")
"> 100 µM"
>>> obs_value("Nc1cc(=O)n(-c2ccccc2)c(=S)n1-c1ccccc1")
"> 100 µM"
>>> obs_value("CC(=O)[CH-]C(=O)c1ccccc1.CC(=O)[CH-]C(=O)c1ccccc1.C[C@]12CCC(=O)C=C1CC[C@@H]1C2CC[C@@]2(C)C1CC[C@@H]2[O-].C[C@]12CCC(=O)C=C1CC[C@@H]1C2CC[C@@]2(C)C1CC[C@@H]2[O-].Cl.[Ti+4] (stereo partly drawn)")
"46.4 µM"
>>> obs_value("O=C1c2cc([N+](=O)[O-])ccc2-c2ccc3c4ccc5c6c(ccc(c7ccc1c2c73)c64)C(=O)c1cc([N+](=O)[O-])ccc1-5")
"> 100 µM"
>>> obs_value("O=C1C=CC(=O)c2c1ccc1c3ccccc3n(-c3ccccc3[N+](=O)[O-])c21")
"4.9 µM"
>>> obs_value("COc1ccccc1NC(=O)c1nc2ccc([N+](=O)[O-])cc2nc1C")
"> 100 µM"
>>> obs_value("COC(=O)C(C/C=C(\\C)c1ccc(Cl)cc1)C(C)=O (stereo not drawn)")
"> 100 µM"
>>> obs_value("COc1ccccc1/C=C1\\NC(=S)N(/C=C2\\C(=O)Oc3ccccc3C2=O)C1=O")
"> 100 µM"
>>> obs_value("CCOC(=O)c1c2c(c(O)c3ccccc3c(O)n(Cc3ccccc3)c1C)C(=O)C=CC2=O")
"> 100 µM"
>>> obs_value("CC(=O)NC1C(OCc2ccccc2)OC(COC(=O)CCCCCCCCCCNc2ccc([N+](=O)[O-])c3[nH]c4ccccc4c(=O)c23)C(O)C1OC(C)C(=O)NC(C)C(=O)NC(CCC(N)=O)C(=O)OCc1ccccc1 (stereo not drawn)")
"> 100 µM"
>>> obs_value("CCOP(=O)(OCC)/C(C#N)=C/c1cnc[nH]1")
"> 100 µM"
>>> obs_value("COc1ccc(C2C=C(c3ccc4c(c3)OCO4)Oc3c2c(=O)oc2ccccc32)cc1OC (stereo not drawn)")
"> 100 µM"
>>> obs_value("CC(=O)Oc1ccc(/C(=C(\\C)c2ccc(Cl)cc2)c2ccc(OCCN3CCCCC3)cc2)cc1")
"5.14 µM"
>>> obs_value("C=C[C@]1(C)CCC2=C(CCC3C2(C)CCC[C@@]3(C)COC(C)=O)C1 (stereo partly drawn)")
"38.1 µM"
>>> obs_value("N#C[Se]CCCNS(=O)(=O)C1CC2C=CC1C2 (stereo not drawn)")
"1.65 µM"
>>> obs_value("COC(=O)CCC(C)C1CCC2C3C(C[C@H](OC(C)=O)[C@]12C)[C@@]1(C)CCC2(C[C@H]1C[C@H]3OC(C)=O)OOC1(CC[C@]3(C)C4C[C@H](OC(C)=O)[C@]5(C)C(C(C)CCC(=O)OC)CCC5C4[C@H](OC(C)=O)C[C@@H]3C1)OO2 (stereo partly drawn)")
"> 100 µM"
>>> obs_value("CC1=CC(=O)CC(C)(C)C1/C=C/C(C)=C/C=C/C(C)=C/C=C/C=C(C)/C=C/C=C(C)/C=C/C1=C(C)CC(O)CC1(C)C (stereo not drawn)")
"> 100 µM"
>>> obs_value("OCc1c[te]c(-c2ccccc2)c1")
"> 100 µM"
>>> obs_value("CN1CCN(Cc2ccc(NC(=O)c3cccc(C#Cc4cnc(N)c5ncccc45)c3F)cc2C(F)(F)F)CC1")
"1.31 µM"
>>> obs_value("CSc1ncc2c(n1)sc1c(=O)n(-c3ccccc3)cnc12")
"> 100 µM"
>>> obs_value("Cn1c(=O)sc2cc(C(=S)N3CCC(Cc4ccccc4)CC3)ccc21")
"> 100 µM"
>>> obs_value("COc1cc2c(cc1OCCCCOc1cc3c(cc1OC)C(=O)N1CCC[C@H]1C(=O)N3)N=C[C@@H]1CCCN1C2=O")
"20.7 µM"
>>> obs_value("COC(=O)C(Cc1nc2ccccc2nc1C)/C(=N\\NC(N)=O)C(=O)Nc1cccc([N+](=O)[O-])c1 (stereo not drawn)")
"> 100 µM"
>>> obs_value("Cc1ccccc1-n1c2nc(=O)n(C)c(=O)c-2nc2ccccc21")
"37.9 µM"
>>> obs_value("COc1ccc2nc3ccc(OC)cc3c(SCc3ccccc3)c2c1")
"> 100 µM"
>>> obs_value("Cc1ccc(NC(=O)c2sc3nc4c(cc3c2N)C(=O)CCC4)cc1C")
"> 100 µM"
>>> obs_value("Ic1cc2c(cc1C1SCCCS1)OCO2")
"> 100 µM"
>>> obs_value("O=C(O)CC(Sc1ccccc1)c1ccccc1 (stereo not drawn)")
"> 100 µM"
>>> obs_value("c1ccc2c(c1)NC1(N3CCCCC3)CCCCC21 (stereo not drawn)")
"> 100 µM"
>>> obs_value("COc1cc(-c2[o+]c3cc(O)cc(O)c3cc2O)cc(O)c1O")
"> 100 µM"
>>> obs_value("Cn1c(=O)c(Oc2ccc(F)cc2F)cc2cnc(NC3CCS(=O)(=O)CC3)nc21")
"> 25 µM"
>>> obs_value("OCCN1CCN2C=C(C3CCCC4N(CCO)CCN34)CCC21 (stereo not drawn)")
"> 100 µM"
>>> obs_value("CCOC(=O)C(C(=S)SC)c1nn2c(=O)cc(C)nc2s1 (stereo not drawn)")
"38.1 µM"
>>> obs_value("O=C(O)CCCc1ccc2ccccc2c1")
"> 100 µM"
>>> obs_value("O=C(CCCl)NNC1=NCCCN1")
"> 100 µM"
>>> obs_value("COc1cccc(NC(=O)C(=O)C(C(=O)c2ccccc2F)C2OC(=O)c3ccccc32)c1 (stereo not drawn)")
"> 100 µM"
>>> obs_value("COc1cc([C@@H]2C[C@H]2c2cc(SC)n[nH]2)cc(OC)c1OC")
"> 100 µM"
>>> obs_value("COc1cccc(N(CN2C(=O)CCC2C(=O)O)C(C)=O)c1 (stereo not drawn)")
"> 100 µM"
